system-under-test: panel of 203 kinases (Homo sapiens, UniProt Q9Y4K4)
Construct: purchased DiscoverX (KINOMEscan)
Sequence (Q9Y4K4 whole entry): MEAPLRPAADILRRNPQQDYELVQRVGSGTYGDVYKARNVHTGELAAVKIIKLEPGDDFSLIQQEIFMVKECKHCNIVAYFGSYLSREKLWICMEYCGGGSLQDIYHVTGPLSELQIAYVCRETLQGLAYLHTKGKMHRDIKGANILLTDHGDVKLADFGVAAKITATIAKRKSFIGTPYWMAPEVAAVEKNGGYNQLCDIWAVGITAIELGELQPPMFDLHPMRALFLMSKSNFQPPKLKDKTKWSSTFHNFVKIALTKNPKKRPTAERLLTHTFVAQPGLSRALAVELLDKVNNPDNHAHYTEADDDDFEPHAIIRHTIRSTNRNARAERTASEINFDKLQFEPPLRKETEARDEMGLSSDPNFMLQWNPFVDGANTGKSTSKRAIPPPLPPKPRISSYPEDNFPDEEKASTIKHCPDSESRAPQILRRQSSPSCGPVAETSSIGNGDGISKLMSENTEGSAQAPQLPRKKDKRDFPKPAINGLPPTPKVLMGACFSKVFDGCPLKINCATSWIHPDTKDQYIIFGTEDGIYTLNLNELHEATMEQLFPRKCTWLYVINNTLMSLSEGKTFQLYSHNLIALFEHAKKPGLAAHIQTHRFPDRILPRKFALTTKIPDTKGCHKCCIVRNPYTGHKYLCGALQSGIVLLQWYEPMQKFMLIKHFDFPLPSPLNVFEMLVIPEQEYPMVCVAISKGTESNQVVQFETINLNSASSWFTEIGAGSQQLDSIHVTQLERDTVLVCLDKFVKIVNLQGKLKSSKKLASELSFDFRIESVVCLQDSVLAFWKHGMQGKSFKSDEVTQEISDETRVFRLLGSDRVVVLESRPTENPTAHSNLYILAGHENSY
protocol-summary: KINOMEscan competitive binding, whole panel
experimental-setup: 10 µM, n=1; kinase MAP4K5; read-out: Percent inhibition MAP4K5
result-type: inhibition at 10 µM (%)
Reply numerically in %, unit not repeated.

Answered examples (3):
| compound-structure | system-under-test | inhibition at 10 µM (%) |
| --- | --- | --- |
| COc1cc(Nc2nccc(-c3sc(N)nc3-c3cccc(NC(=O)c4c(F)cccc4F)c3)n2)cc(OC)c1OC | panel of 203 kinases (Homo sapiens, UniProt Q9Y4K4) | 99.9 |
| Cc1ccc(O)cc1N(C)c1ccnc(Nc2cccc(S(N)(=O)=O)c2)n1 | panel of 203 kinases (Homo sapiens, UniProt Q9Y4K4) | 99.1 |
| CN1CCN(c2ccc(Nc3nccc(-c4cnn5ncccc45)n3)cc2C#N)CC1 | panel of 203 kinases (Homo sapiens, UniProt Q9Y4K4) | 93 |

For the next question, use this compound.
Item under review: c1ccc(COc2cccc(-c3ccnc4[nH]ccc34)c2)cc1 . Reported inhibition at 10 µM? 0

====

# Lookup of reported inhibition at 10 µM keyed by entry
system-under-test: panel of 203 kinases (Homo sapiens, UniProt Q96RR4)
Construct: purchased DiscoverX (KINOMEscan)
Sequence (Q96RR4 whole entry): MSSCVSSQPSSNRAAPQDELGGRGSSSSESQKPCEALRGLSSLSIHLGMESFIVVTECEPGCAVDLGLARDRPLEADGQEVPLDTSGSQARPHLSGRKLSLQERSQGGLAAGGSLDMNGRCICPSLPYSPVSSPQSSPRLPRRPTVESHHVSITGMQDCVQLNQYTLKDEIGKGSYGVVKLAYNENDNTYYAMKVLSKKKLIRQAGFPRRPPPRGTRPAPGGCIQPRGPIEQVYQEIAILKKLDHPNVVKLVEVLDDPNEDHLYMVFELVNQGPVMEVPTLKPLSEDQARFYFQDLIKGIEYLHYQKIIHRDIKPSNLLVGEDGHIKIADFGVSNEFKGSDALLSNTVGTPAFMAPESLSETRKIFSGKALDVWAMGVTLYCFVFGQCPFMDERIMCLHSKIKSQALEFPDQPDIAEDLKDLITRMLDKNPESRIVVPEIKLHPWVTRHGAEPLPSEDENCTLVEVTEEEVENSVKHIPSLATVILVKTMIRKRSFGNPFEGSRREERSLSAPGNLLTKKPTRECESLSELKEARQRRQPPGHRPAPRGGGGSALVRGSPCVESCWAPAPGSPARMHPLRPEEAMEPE
protocol-summary: KINOMEscan competitive binding, whole panel
experimental-setup: 10 µM, n=1; kinase CAMKK2; read-out: Percent inhibition CAMKK2
Give just the number in %; leave the unit off.

Here's what some known entries look like.
| compound-structure | inhibition at 10 µM / % |
| --- | --- |
| COc1cc(Nc2nccc(-c3sc(N)nc3-c3cccc(NC(=O)c4c(F)cccc4F)c3)n2)cc(OC)c1OC | 0 |
| Nc1ncc2c(-c3ccncc3)c[nH]c2n1 | 0 |
| C[C@@H](Oc1cc(-c2cnc3ccccn23)sc1C(N)=O)c1ccccc1Cl | 81.2 |

Quick check: inhibition at 10 µM of Fc1cccc(COc2ccc(Nc3ncnc4c3CN(CCN3CCOCC3)CC4)cc2Cl)c1 ? 0

Endpoint output: inhibition at 10 µM of c1ccc(COc2cccc(-c3ccnc4[nH]ccc34)c2)cc1 . Value? 0

Can you share its inhibition at 10 µM? I mean this compound: Cc1ccc(O)cc1Nc1ccnc(Nc2cccc(C(N)=O)c2)n1 0

Return reported inhibition at 10 µM; argument: Clc1ccc(Nc2ncc(-c3ccccc3)s2)cc1 0

Please report the recorded inhibition at 10 µM for Cc1ccc(O)cc1N(C)c1ccnc(Nc2cccc(S(N)(=O)=O)c2)n1 . 0

Dear colleague, I am looking for the recorded inhibition at 10 µM of the following compound: CN1CCN(c2ccc(Nc3nccc(-c4cnn5ncccc45)n3)cc2C#N)CC1 98

Looking for the measured inhibition at 10 µM of COc1ccc(Nc2nccc(-c3cnn4ncccc34)n2)cc1 , can you help? 96.3

====

system-under-test: panel of 203 kinases (Homo sapiens, UniProt O14976)
Construct: purchased DiscoverX (KINOMEscan)
Sequence (O14976 whole entry): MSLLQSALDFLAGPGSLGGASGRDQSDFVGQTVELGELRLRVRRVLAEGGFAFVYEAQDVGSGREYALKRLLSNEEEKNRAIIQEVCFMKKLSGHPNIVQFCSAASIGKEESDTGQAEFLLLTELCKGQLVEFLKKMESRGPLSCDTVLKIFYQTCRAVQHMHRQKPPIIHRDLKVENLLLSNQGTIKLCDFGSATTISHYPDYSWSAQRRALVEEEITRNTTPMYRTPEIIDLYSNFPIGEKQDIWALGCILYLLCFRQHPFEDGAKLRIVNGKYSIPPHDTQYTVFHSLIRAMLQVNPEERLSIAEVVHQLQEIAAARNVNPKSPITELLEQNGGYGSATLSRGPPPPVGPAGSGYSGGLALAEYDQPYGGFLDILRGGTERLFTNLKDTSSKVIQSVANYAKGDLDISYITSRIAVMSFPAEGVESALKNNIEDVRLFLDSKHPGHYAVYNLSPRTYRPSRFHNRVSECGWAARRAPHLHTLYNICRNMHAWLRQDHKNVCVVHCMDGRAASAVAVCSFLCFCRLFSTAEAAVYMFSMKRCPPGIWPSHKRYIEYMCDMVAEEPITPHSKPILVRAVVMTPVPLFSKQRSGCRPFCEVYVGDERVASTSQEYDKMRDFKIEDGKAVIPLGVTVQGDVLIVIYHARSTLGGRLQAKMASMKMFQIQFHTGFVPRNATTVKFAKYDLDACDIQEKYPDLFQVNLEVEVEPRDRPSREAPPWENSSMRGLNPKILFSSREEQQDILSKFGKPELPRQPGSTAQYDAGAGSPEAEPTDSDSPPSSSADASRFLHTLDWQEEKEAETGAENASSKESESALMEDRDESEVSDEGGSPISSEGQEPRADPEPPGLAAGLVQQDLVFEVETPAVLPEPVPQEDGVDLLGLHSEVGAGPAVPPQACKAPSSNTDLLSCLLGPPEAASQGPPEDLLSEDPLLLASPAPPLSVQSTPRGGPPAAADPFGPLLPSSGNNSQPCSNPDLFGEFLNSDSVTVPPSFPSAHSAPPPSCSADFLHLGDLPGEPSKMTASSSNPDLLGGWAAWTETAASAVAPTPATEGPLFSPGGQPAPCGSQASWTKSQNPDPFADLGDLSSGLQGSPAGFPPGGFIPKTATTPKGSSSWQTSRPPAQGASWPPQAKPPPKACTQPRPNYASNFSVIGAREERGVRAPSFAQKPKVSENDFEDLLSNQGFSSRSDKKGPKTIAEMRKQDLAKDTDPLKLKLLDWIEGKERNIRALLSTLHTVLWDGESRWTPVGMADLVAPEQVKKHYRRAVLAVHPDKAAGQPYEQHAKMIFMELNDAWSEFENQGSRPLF
protocol-summary: KINOMEscan competitive binding, whole panel
experimental-setup: 10 µM, n=1; kinase GAK; read-out: Percent inhibition GAK
Source text: The kinases were expressed as fusions to T7 bacteriophage. This is a sensitive, competitive binding assay where test compounds were used to displace immobilized ATP-site binding probe ligands from kinases of interest. The amount of kinase that remained bound to the immobilized probe ligands on the solid support was quantified. Percentage inhibition data were was plotted on kinome trees using the web-based tool KinMap (http://www.kinhub.org/kinmap) ([60]).
result-type: inhibition at 10 µM (%)
// note: answer is a bare numeric in %

Solved entries (count: 2):
| compound-structure | result-unit | inhibition at 10 µM |
| --- | --- | --- |
| Fc1cccc(COc2ccc(Nc3ncnc4c3CN(CCN3CCOCC3)CC4)cc2Cl)c1 | % | 0 |
| COc1cc(Nc2nccc(-c3sc(N)nc3-c3cccc(NC(=O)c4c(F)cccc4F)c3)n2)cc(OC)c1OC | % | 100 |

// lookup inhibition at 10 µM for C[C@@H](Oc1cc(-c2cnc3ccccn23)sc1C(N)=O)c1ccccc1Cl 97.2

Entry c1ccc(COc2cccc(-c3ccnc4[nH]ccc34)c2)cc1 has what inhibition at 10 µM? 0

====

Listed compounds paired with reported inhibition at 10 µM
system-under-test: panel of 203 kinases (Homo sapiens)
Construct: purchased DiscoverX (KINOMEscan)
protocol-summary: KINOMEscan competitive binding, whole panel
experimental-setup: 10 µM, n=1; kinase JNK3; read-out: Percent inhibition JNK3
The answer is to be given in %; state only the numeric part.

Record excerpt, results attached:
| compound-structure | inhibition at 10 µM, % |
| --- | --- |
| Fc1cccc(COc2ccc(Nc3ncnc4c3CN(CCN3CCOCC3)CC4)cc2Cl)c1 | 0 |
| C[C@@H](Oc1cc(-c2cnc3ccccn23)sc1C(N)=O)c1ccccc1Cl | 0 |
| Cc1ccc(O)cc1N(C)c1ccnc(Nc2cccc(S(N)(=O)=O)c2)n1 | 96.1 |

Using the record for COc1cc(Nc2nccc(-c3sc(N)nc3-c3cccc(NC(=O)c4c(F)cccc4F)c3)n2)cc(OC)c1OC , report its inhibition at 10 µM. 100

Entry Nc1ncc2c(-c3ccncc3)c[nH]c2n1 : reported inhibition at 10 µM = ? 97.1

Which inhibition at 10 µM is reported for this compound? Cc1ccc(O)cc1Nc1ccnc(Nc2cccc(C(N)=O)c2)n1 94.2

Recorded inhibition at 10 µM of COc1ccc(Nc2nccc(-c3cnn4ncccc34)n2)cc1 , please. 100

Fill blank: measured inhibition at 10 µM of the compound c1ccc(COc2cccc(-c3ccnc4[nH]ccc34)c2)cc1 is ____. 0

Report inhibition at 10 µM for CN1CCN(c2ccc(Nc3nccc(-c4cnn5ncccc45)n3)cc2C#N)CC1 please. 100

Endpoint output: inhibition at 10 µM of Clc1ccc(Nc2ncc(-c3ccccc3)s2)cc1 . Value? 0

====

system-under-test: FLT3 (Homo sapiens, UniProt P36888)
Construct: purchased DiscoverX (KINOMEscan)
Sequence (P36888 27-993): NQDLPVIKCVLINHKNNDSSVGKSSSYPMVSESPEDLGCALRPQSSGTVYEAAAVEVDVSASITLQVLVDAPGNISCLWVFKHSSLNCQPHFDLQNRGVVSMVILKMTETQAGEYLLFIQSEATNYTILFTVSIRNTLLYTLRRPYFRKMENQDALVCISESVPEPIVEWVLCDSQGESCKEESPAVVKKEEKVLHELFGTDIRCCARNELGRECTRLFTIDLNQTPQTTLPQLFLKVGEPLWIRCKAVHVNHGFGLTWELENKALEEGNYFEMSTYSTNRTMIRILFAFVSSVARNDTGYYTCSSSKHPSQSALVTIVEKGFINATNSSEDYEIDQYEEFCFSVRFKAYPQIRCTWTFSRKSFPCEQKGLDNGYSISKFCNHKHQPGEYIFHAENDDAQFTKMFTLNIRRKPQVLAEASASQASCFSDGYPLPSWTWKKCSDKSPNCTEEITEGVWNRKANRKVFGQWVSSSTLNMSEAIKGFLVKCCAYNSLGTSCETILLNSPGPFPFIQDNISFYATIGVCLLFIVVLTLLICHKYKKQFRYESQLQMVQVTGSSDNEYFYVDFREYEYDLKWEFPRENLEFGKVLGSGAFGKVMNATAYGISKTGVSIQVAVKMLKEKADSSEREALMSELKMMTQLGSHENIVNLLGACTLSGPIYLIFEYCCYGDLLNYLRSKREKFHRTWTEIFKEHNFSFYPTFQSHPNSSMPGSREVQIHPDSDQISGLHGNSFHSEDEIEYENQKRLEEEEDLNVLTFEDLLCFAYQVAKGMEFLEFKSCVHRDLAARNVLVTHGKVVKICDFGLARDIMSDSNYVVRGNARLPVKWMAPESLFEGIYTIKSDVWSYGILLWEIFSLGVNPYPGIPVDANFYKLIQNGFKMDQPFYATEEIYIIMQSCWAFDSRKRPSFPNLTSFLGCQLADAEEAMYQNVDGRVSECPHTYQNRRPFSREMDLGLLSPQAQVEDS
protocol-summary: KINOMEscan competitive binding
experimental-setup: 10 µM, n=1; kinase FLT3; read-out: Percent inhibition FLT3
result-type: inhibition at 10 µM (%)
Entry rule: numbers only, all in %.

Here is how some molecules turned out for inhibition at 10 µM.
| compound-structure | result-type | observed-value |
| --- | --- | --- |
| CN1CCN(c2ccc(Nc3nccc(-c4cnn5ncccc45)n3)cc2C#N)CC1 | inhibition at 10 µM | 100 |
| C[C@@H](Oc1cc(-c2cnc3ccccn23)sc1C(N)=O)c1ccccc1Cl | inhibition at 10 µM | 98.6 |
| Nc1ncc2c(-c3ccncc3)c[nH]c2n1 | inhibition at 10 µM | 94.5 |
| Clc1ccc(Nc2ncc(-c3ccccc3)s2)cc1 | inhibition at 10 µM | 97.1 |
| Fc1cccc(COc2ccc(Nc3ncnc4c3CN(CCN3CCOCC3)CC4)cc2Cl)c1 | inhibition at 10 µM | 0 |
| COc1ccc(Nc2nccc(-c3cnn4ncccc34)n2)cc1 | inhibition at 10 µM | 99.3 |
| Cc1ccc(O)cc1Nc1ccnc(Nc2cccc(C(N)=O)c2)n1 | inhibition at 10 µM | 89 |
| COc1cc(Nc2nccc(-c3sc(N)nc3-c3cccc(NC(=O)c4c(F)cccc4F)c3)n2)cc(OC)c1OC | inhibition at 10 µM | 99.8 |
| Cc1ccc(O)cc1N(C)c1ccnc(Nc2cccc(S(N)(=O)=O)c2)n1 | inhibition at 10 µM | 92.3 |

We now examine a further molecule.
Tell me the measured inhibition at 10 µM of c1ccc(COc2cccc(-c3ccnc4[nH]ccc34)c2)cc1 , please. 91.1

====

Below is a list of entries, each paired with its recorded inhibition at 10 µM value.
system-under-test: panel of 203 kinases (Homo sapiens, UniProt Q9HBH9)
Construct: purchased DiscoverX (KINOMEscan)
Sequence (Q9HBH9 whole entry): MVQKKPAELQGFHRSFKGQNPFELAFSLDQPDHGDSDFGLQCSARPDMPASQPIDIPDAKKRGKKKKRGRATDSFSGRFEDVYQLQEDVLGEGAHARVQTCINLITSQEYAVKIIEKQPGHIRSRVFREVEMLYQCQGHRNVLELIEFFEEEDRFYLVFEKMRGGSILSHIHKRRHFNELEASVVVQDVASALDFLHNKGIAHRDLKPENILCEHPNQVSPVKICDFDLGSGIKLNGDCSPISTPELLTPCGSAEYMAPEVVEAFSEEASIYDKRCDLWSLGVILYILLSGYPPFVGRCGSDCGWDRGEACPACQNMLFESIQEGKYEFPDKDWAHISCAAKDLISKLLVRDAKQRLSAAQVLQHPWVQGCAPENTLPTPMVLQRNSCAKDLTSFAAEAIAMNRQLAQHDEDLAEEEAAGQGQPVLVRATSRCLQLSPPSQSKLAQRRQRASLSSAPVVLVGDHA
protocol-summary: KINOMEscan competitive binding, whole panel
experimental-setup: 10 µM, n=1; kinase MKNK2; read-out: Percent inhibition MKNK2
Write the answer as a number in %, unit excluded.

| compound-structure | inhibition at 10 µM, % |
| --- | --- |
| Cc1ccc(O)cc1N(C)c1ccnc(Nc2cccc(S(N)(=O)=O)c2)n1 | 99.3 |

Would you kindly share the measured inhibition at 10 µM for COc1ccc(Nc2nccc(-c3cnn4ncccc34)n2)cc1 ? 99.4

Look at this compound and give its reported inhibition at 10 µM. COc1cc(Nc2nccc(-c3sc(N)nc3-c3cccc(NC(=O)c4c(F)cccc4F)c3)n2)cc(OC)c1OC 100

Would you kindly share the measured inhibition at 10 µM for C[C@@H](Oc1cc(-c2cnc3ccccn23)sc1C(N)=O)c1ccccc1Cl ? 0

Which inhibition at 10 µM reading was recorded for the compound c1ccc(COc2cccc(-c3ccnc4[nH]ccc34)c2)cc1 ? 0

Quick one: inhibition at 10 µM for CN1CCN(c2ccc(Nc3nccc(-c4cnn5ncccc45)n3)cc2C#N)CC1 ? 97

For the compound shown here, Clc1ccc(Nc2ncc(-c3ccccc3)s2)cc1 , give the reported inhibition at 10 µM. 65.7

Look up inhibition at 10 µM: Nc1ncc2c(-c3ccncc3)c[nH]c2n1 97.3

Query: inhibition at 10 µM; subject: Cc1ccc(O)cc1Nc1ccnc(Nc2cccc(C(N)=O)c2)n1 83.9

Return reported inhibition at 10 µM; argument: Fc1cccc(COc2ccc(Nc3ncnc4c3CN(CCN3CCOCC3)CC4)cc2Cl)c1 0
